The values you see were collected from ChEMBL document CHEMBL3885861.

Species: Rattus norvegicus
TEST SUMMARY: Open TG-GATES - Regimen: Daily Repeat
Type: toxicity, organism-based, Sprague-Dawley
Parameters: regimen Daily Repeat, gender Male, age 6 weeks
ASSAY CONDITIONS: in vivo, po, 0 mg/kg, […], tissue Plasma, route gavage, dose level Control, time 14 day
Can you tell me ALT for the items I'm about to list?

IN: Can you look up the measured ALT of CC1=C(CC(=O)O)c2cc(F)ccc2/C1=C\c1ccc([S+](C)[O-])cc1 (stereo unspecified) for me?
OUT: 38.6 IU/L

IN: What do we get for CN(C)CCC=C1c2ccccc2COc2ccccc21 [DOXEPIN] ?
OUT: 42.8 IU/L

IN: And what about the molecule O=NN(CCCl)C(=O)NC1CCCCC1 ?
OUT: 34 IU/L

IN: # repeat for CCc1oc2ccccc2c1C(=O)c1cc(Br)c(O)c(Br)c1
OUT: 30.6 IU/L

IN: Here is the next molecule: OCCOCCN1CCN(C(c2ccccc2)c2ccc(Cl)cc2)CC1 (stereo unspecified) [HYDROXYZINE]
OUT: 40.6 IU/L

IN: Further, for CN(C)C(=N)N=C(N)N ?
OUT: 43.2 IU/L

IN: Also ClC(Cl)(Cl)Cl [CARBON TETRACHLORIDE] , if possible.
OUT: 29.8 IU/L

IN: Continue with CC(C)N(CCC(C(N)=O)(c1ccccc1)c1ccccn1)C(C)C (stereo unspecified) [DISOPYRAMIDE]
OUT: 41.8 IU/L

IN: And CCC1(c2ccccc2)C(=O)NC(=O)NC1=O ?
OUT: 31.4 IU/L

IN: What about this molecule? CC[C@H]1[C@@H]2C[C@H]3[C@@H]4N(C)c5ccccc5[C@]45C[C@@H]([C@@H]2[C@H]5O)N3[C@@H]1O
OUT: 31 IU/L

IN: // repeat for CCCCc1oc2ccccc2c1C(=O)c1cc(I)c(OCCN(CC)CC)c(I)c1 and report
OUT: 40.6 IU/L

====

Please respond with reported K for every item in the list.
Organism: Rattus norvegicus
TEST SUMMARY: Open TG-GATES - Regimen: Single
Format: toxicity, organism-based, Sprague-Dawley
Set-up: regimen Single, gender Male, age 6 weeks
ASSAY CONDITIONS: in vivo, po, 0 mg/kg, 24 h, tissue Plasma, route gavage, dose level Control
Numbers only here, please. The scale is meq/L.

IN: Which K value is on record for CC[C@H]1[C@@H]2C[C@H]3[C@@H]4N(C)c5ccccc5[C@]45C[C@@H]([C@@H]2[C@H]5O)N3[C@@H]1O ?
OUT: 4.6

IN: Now consider CC1=C(CC(=O)O)c2cc(F)ccc2/C1=C\c1ccc([S+](C)[O-])cc1 (centres undefined) and answer again.
OUT: 4.1

IN: Now consider CN(C)C(=N)N=C(N)N and answer again.
OUT: 3.9

IN: Also check CCC1(c2ccccc2)C(=O)NC(=O)NC1=O
OUT: 4

====

Species: Rattus norvegicus
TEST SUMMARY: Open TG-GATES - Regimen: Daily Repeat
Type: toxicity, organism-based, Sprague-Dawley
Parameters: regimen Daily Repeat, gender Male, age 6 weeks
ASSAY CONDITIONS: in vivo, po, 0 mg/kg, […], tissue Plasma, route gavage, dose level Control, time 7 day
MEASUREMENT LABEL: Na (meq/L)
// units = meq/L; emit number, no label

IN: Look up Na for this molecule: CN(C)CCC=C1c2ccccc2COc2ccccc21 [DOXEPIN]
OUT: 141.4

IN: Similarly, CC[C@H]1[C@@H]2C[C@H]3[C@@H]4N(C)c5ccccc5[C@]45C[C@@H]([C@@H]2[C@H]5O)N3[C@@H]1O ?
OUT: 142.4

IN: Continue with ClC(Cl)(Cl)Cl [CARBON TETRACHLORIDE]
OUT: 139.8

IN: Thanks! And O=NN(CCCl)C(=O)NC1CCCCC1 ?
OUT: 140.4

IN: Okay, and CCc1oc2ccccc2c1C(=O)c1cc(Br)c(O)c(Br)c1 ?
OUT: 138.3

IN: Now this one: CN(C)C(=N)N=C(N)N
OUT: 141.4

IN: Moving on to CCC1(c2ccccc2)C(=O)NC(=O)NC1=O
OUT: 139.4

IN: // next record OCCOCCN1CCN(C(c2ccccc2)c2ccc(Cl)cc2)CC1 (stereo unspecified) [HYDROXYZINE]
OUT: 143.2

IN: Try this molecule next: CC(C)N(CCC(C(N)=O)(c1ccccc1)c1ccccn1)C(C)C (stereo unspecified) [DISOPYRAMIDE]
OUT: 143.2

IN: Param item: CCCCc1oc2ccccc2c1C(=O)c1cc(I)c(OCCN(CC)CC)c(I)c1
OUT: 140.4

IN: Try CC1=C(CC(=O)O)c2cc(F)ccc2/C1=C\c1ccc([S+](C)[O-])cc1 (stereo unspecified) next.
OUT: 140.4
